# Tested on: HaCaT
# Test summary: Cytotoxicity against human HaCaT cells at 50 uM after 24 hrs by MTT assay relative to control
# Assay type: cell-based
Where a SMILES comes first, the peptide text is derived from it. [ ]: non-standard residue; d: D form. Aic = NC1(C(=O)O)Cc2ccccc2C1

Compound	Readout units	Activity
CC[C@H](C)[C@H](NC(=O)[C@H](CCCNC(=N)N)NC(=O)[C@H]1C[C@@H](O)CN1C(=O)[C@@H](CC(C)C)NC(=O)[C@H](Cc1ccccc1)NC(=O)[C@H](CCCCN)NC(=O)[C@H](CO)NC(=O)[C@H](Cc1ccccc1)NC(=O)[C@H](Cc1c[nH]c2ccccc12)NC(=O)[C@@H]1CCCN1C(=O)[C@@H](NC(=O)[C@@H](N)Cc1ccccc1)C(C)C)C(=O)N[C@@H](CC(C)C)C(N)=O	%	0
CC[C@H](C)[C@H](NC(=O)[C@H](CCCNC(=N)N)NC(=O)[C@@H](Cc1c[nH]c2ccccc12)NC(=O)[C@@H](CC(C)C)NC(=O)[C@H](Cc1ccccc1)NC(=O)[C@H](CCCCN)NC(=O)[C@H](CO)NC(=O)[C@H](Cc1ccccc1)NC(=O)[C@H](Cc1c[nH]c2ccccc12)NC(=O)[C@@H]1CCCN1C(=O)[C@@H](NC(=O)[C@@H](N)Cc1ccccc1)C(C)C)C(=O)N[C@@H](CC(C)C)C(N)=O (H-FVPWFSKF[dL][dW]RIL-NH2)	%	96.77
CC[C@H](C)[C@H](NC(=O)[C@H](CCCNC(=N)N)NC(=O)[C@@H]1C[C@@H](O)CN1C(=O)[C@@H](CC(C)C)NC(=O)[C@H](Cc1ccccc1)NC(=O)[C@H](CCCCN)NC(=O)[C@H](CO)NC(=O)[C@H](Cc1ccccc1)NC(=O)[C@H](Cc1c[nH]c2ccccc12)NC(=O)[C@@H]1CCCN1C(=O)[C@@H](NC(=O)[C@@H](N)Cc1ccccc1)C(C)C)C(=O)N[C@@H](CC(C)C)C(N)=O	%	98.81
CC[C@H](C)[C@H](NC(=O)[C@H](CCCNC(=N)N)NC(=O)C1(NC(=O)[C@@H](CC(C)C)NC(=O)[C@H](Cc2ccccc2)NC(=O)[C@H](CCCCN)NC(=O)[C@H](CO)NC(=O)[C@H](Cc2ccccc2)NC(=O)[C@H](Cc2c[nH]c3ccccc23)NC(=O)[C@@H]2CCCN2C(=O)[C@@H](NC(=O)[C@@H](N)Cc2ccccc2)C(C)C)Cc2ccccc2C1)C(=O)N[C@@H](CC(C)C)C(N)=O (H-FVPWFSKF[dL][Aic]RIL-NH2)	%	92.84
CC[C@H](C)[C@H](NC(=O)[C@H](CCCNC(=N)N)NC(=O)[C@@H]1CCCN1C(=O)[C@@H](CC(C)C)NC(=O)[C@H](Cc1ccccc1)NC(=O)[C@H](CCCCN)NC(=O)[C@H](CO)NC(=O)[C@H](Cc1ccccc1)NC(=O)[C@H](Cc1c[nH]c2ccccc12)NC(=O)[C@@H]1CCCN1C(=O)[C@@H](NC(=O)[C@@H](N)Cc1ccccc1)C(C)C)C(=O)N[C@@H](CC(C)C)C(N)=O (H-FVPWFSKF[dL]PRIL-NH2)	%	96.61
CC[C@H](C)[C@H](NC(=O)[C@H](CCCNC(=N)N)NC(=O)CNC(=O)[C@@H](CC(C)C)NC(=O)[C@H](Cc1ccccc1)NC(=O)[C@H](CCCCN)NC(=O)[C@H](CO)NC(=O)[C@H](Cc1ccccc1)NC(=O)[C@H](Cc1c[nH]c2ccccc12)NC(=O)[C@@H]1CCCN1C(=O)[C@@H](NC(=O)[C@@H](N)Cc1ccccc1)C(C)C)C(=O)N[C@@H](CC(C)C)C(N)=O (H-FVPWFSKF[dL]GRIL-NH2)	%	91.58
CCCC[C@H](NC(=O)[C@@H](CC(C)C)NC(=O)[C@H](Cc1ccccc1)NC(=O)[C@H](CCCCN)NC(=O)[C@H](CO)NC(=O)[C@H](Cc1ccccc1)NC(=O)[C@H](Cc1c[nH]c2ccccc12)NC(=O)[C@@H]1CCCN1C(=O)[C@@H](NC(=O)[C@@H](N)Cc1ccccc1)C(C)C)C(=O)N[C@@H](CCCNC(=N)N)C(=O)NC(C(=O)N[C@@H](CC(C)C)C(N)=O)[C@@H](C)CC (single isomer, unassigned)	%	99.76
CC[C@H](C)[C@H](NC(=O)[C@H](CCCNC(=N)N)NC(=O)[C@H]1CCCN1C(=O)[C@@H](CC(C)C)NC(=O)[C@H](Cc1ccccc1)NC(=O)[C@H](CCCCN)NC(=O)[C@H](CO)NC(=O)[C@H](Cc1ccccc1)NC(=O)[C@H](Cc1c[nH]c2ccccc12)NC(=O)[C@@H]1CCCN1C(=O)[C@@H](NC(=O)[C@@H](N)Cc1ccccc1)C(C)C)C(=O)N[C@@H](CC(C)C)C(N)=O (H-FVPWFSKF[dL][dP]RIL-NH2)	%	0
CC[C@H](C)[C@H](NC(=O)[C@H](CCCNC(=N)N)NC(=O)[C@H](Cc1c[nH]c2ccccc12)NC(=O)[C@@H](CC(C)C)NC(=O)[C@H](Cc1ccccc1)NC(=O)[C@H](CCCCN)NC(=O)[C@H](CO)NC(=O)[C@H](Cc1ccccc1)NC(=O)[C@H](Cc1c[nH]c2ccccc12)NC(=O)[C@@H]1CCCN1C(=O)[C@@H](NC(=O)[C@@H](N)Cc1ccccc1)C(C)C)C(=O)N[C@@H](CC(C)C)C(N)=O (H-FVPWFSKF[dL]WRIL-NH2)	%	89.3
